Reference source: patent US8598208B2

target.of.assay: recombinant human S1P1 receptor (Homo sapiens)
Sequence (P21453 whole entry): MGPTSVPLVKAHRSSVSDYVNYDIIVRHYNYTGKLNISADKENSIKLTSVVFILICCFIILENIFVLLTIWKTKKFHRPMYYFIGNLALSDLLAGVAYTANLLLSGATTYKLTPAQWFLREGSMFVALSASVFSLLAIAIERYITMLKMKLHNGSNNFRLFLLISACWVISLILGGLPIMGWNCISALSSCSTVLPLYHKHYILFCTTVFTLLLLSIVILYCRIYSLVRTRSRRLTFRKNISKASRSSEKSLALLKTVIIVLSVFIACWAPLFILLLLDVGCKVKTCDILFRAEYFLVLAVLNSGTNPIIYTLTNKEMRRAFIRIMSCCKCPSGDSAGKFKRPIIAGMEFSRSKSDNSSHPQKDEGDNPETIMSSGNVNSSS
protocol.details: GTPγS assay to determine EC50 values
condition.set: membrane preparations of CHO cells expressing recombinant human S1P1 receptor; pH 7.4; read-out: EC50 (agonistic activity, 35S-GTPγS binding)
pEC50: −log10 of the molar value.
recorded.metric: pEC50

> print(dat)
                                   compound  result.number
1  CCc1cc(-c2nc(-c3cc(C)nc(C)c3)no2)cc(CC(C)C)n1 [Example 61]           9.00
2  CCc1cc(-c2noc(-c3cc(C)nc(CC)c3)n2)cc(C)n1 [Example 2]           8.28

I: CCc1cc(-c2noc(-c3cc(C)nc(C(CC)CC)c3)n2)cc(C)n1 [Example 45]
II: CCNc1cc(-c2nc(-c3cc(C)nc(CC)c3)no2)cc(C)n1 [Example 29]
III: CCc1cc(-c2noc(-c3cc(CC)nc(CC(C)C)c3)n2)cc(C)n1 [Example 62]
QUERY: Order the records by pEC50, with each subsequent value no larger than the one before. API: response body holds the labels in the requested order.
RESULT: I, II, III

I: Cc1cc(-c2noc(-c3cc(C)nc(C4CCCC4)c3)n2)cc(C)n1 [Example 66]
II: CCc1cc(-c2noc(-c3cc(OC)nc(C4CCCC4)c3)n2)cc(C)n1 [Example 117]
III: CCC(CC)c1cc(-c2nc(-c3cc(C)nc(C)c3)no2)cc(C)n1 [Example 65]
IV: Cc1cc(-c2nc(-c3cnc(NC(C)C)c(C)c3)no2)cc(CC(C)C)n1 [Example 39]
QUERY: Order the records by pEC50, with each subsequent value no larger than the one before. API: response body holds the labels in the requested order.
RESULT: I, III, II, IV
(I: 9.52, III: 9.30, II: 8.68, IV: 8.21)

P: Cc1cc(-c2noc(-c3cc(C)nc(CC(C)C)c3)n2)cc(C)n1 [Example 8]
Q: CCCc1cc(-c2nc(-c3cc(C)nc(C)c3)no2)cc(C)n1 [Example 6]
QUERY: Higher pEC50 between P and Q ? Provide the label of your selected option as the answer.
RESULT: P
